target: human melanocortin 4 receptor (human) (UniProt P32245); assay: competition with 125-NDP-α-MSH, BHK human MC4R membranes
Sequence (P32245 whole entry): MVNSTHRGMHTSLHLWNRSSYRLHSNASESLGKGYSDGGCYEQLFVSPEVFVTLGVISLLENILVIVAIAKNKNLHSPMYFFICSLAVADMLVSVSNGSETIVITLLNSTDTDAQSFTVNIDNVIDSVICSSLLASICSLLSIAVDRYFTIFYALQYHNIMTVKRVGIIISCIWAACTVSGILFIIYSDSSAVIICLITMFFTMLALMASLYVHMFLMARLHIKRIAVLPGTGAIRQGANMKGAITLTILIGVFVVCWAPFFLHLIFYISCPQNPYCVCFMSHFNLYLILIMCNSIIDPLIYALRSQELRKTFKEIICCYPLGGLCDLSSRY
Positions of bridges follow the written chain, without caps; N, C: chain ends. Non-standard residues stand in square brackets, D forms with d.
READOUT LABEL: Ki (nM)
# value in nM; strip the unit string

Output measured Ki for this item: cyclo(CH[dF]RW[dA]CH[dF]RW[dA]) (disulfide 1-7; SMILES C[C@H]1NC(=O)[C@H](Cc2c[nH]c3ccccc23)NC(=O)[C@H](CCCNC(=N)N)NC(=O)[C@@H](Cc2ccccc2)NC(=O)[C@H](Cc2c[nH]cn2)NC(=O)[C@@H]2CSSC[C@H](NC1=O)C(=O)N[C@@H](Cc1c[nH]cn1)C(=O)N[C@H](Cc1ccccc1)C(=O)N[C@@H](CCCNC(=N)N)C(=O)N[C@@H](Cc1c[nH]c3ccccc13)C(=O)N[C@H](C)C(=O)N2) [Chem. 6]
0.19
